procedure.details: Half life in mouse at 3 mg/kg, iv
Format: ADME, organism-based
Set-up: dose 3 mg/kg, route intravenous
study.conditions: in vivo
measured.property: half-life (min)
Your answer is read as min, so omit the unit and give the number.

Notebook: `CCCS(=O)(=O)N1CCN(c2ccc(OCC3CCN(C(=O)OC(C)C)CC3)cn2)CC1` , half-life read as 37.2

---

procedure.details: Tmax in mouse at 30 mg/kg, po
Assay type: ADME, organism-based
Parameters: dose 30 mg/kg, route oral
study.conditions: in vivo
measured.property: Tmax (min)
# output: bare number, implied unit min

response.value for `CCCS(=O)(=O)N1CCN(c2ccc(OCC3CCN(C(=O)OC(C)C)CC3)cn2)CC1` (field: Tmax) = 15

---

Recorded Activity, one value per entry.
assayed.system: Glucose-dependent insulinotropic receptor (Homo sapiens)
procedure.details: Agonist activity at human GPR119 receptor expressed in CHO-K1 cells co-transfected with 6CRE-Luc after 5 hrs by luciferase reporter gene assay relative to N-(4-(1H-1,2,4-triazol-1-yl)phenyl)-5-nitro-6-(4-(pyridin-2-ylthio)piperidin-1-yl)pyrimidin-4-amine maximal response
Format: functional, cell-based

COCCS(=O)(=O)N1CCN(c2ccc(OCC3CCN(C(=O)OC(C)C)CC3)cn2)CC1    178%
COCCN1CCN(c2ccc(OCC3CCN(C(=O)OC(C)C)CC3)cn2)CC1    28%
CC(C)OC(=O)N1CCC(COc2ccc(N3CCN(S(=O)(=O)c4cccnc4)CC3)nc2)CC1    100%
CCCS(=O)(=O)N1CCN(c2ccc(OCC3CCN(C(=O)C(F)F)CC3)cn2)CC1    97%
CC(C)OC(=O)N1CCC(COc2ccc(N3CCN(S(=O)(=O)CC4CCCCC4)CC3)nc2)CC1    136%
CCCS(=O)(=O)N1CCN(c2ccc(OCC3CCN(C(=O)CC(C)(C)C)CC3)cn2)CC1    175%

So, `CCCS(=O)(=O)N1CCN(c2ccc(OCC3CCN(C(=O)NC(C)C)CC3)cn2)CC1` ? Its Activity was 45%

Reported Activity for `CCCS(=O)(=O)N1CCN(c2ccc(OCC3CCN(C(=O)NC(C)(C)C)CC3)cn2)CC1` was 75%

For record `CCS(=O)(=O)N1CCN(c2ccc(OCC3CCN(C(=O)OC(C)C)CC3)cn2)CC1` the listed Activity is 167%

// sample `CC(=O)N1CCN(c2ccc(OCC3CCN(C(=O)OC(C)C)CC3)cn2)CC1` , its Activity was < 10%

Reported Activity for `CC(C)OC(=O)N1CCC(COc2ccc(N3CCN(C(=O)N(C)C)CC3)nc2)CC1` was 23%

---

procedure.details: Membrane permeability by PAMPA method
Format: ADME
study.conditions: read-out: permeability
measured.property: Papp (×10⁻⁶ cm/s)
Numeric answer only, unit ×10⁻⁶ cm/s assumed.

Data point: `CCCS(=O)(=O)N1CCN(c2ccc(OCC3CCN(C(=O)OC(C)C)CC3)cn2)CC1` ; Papp = 47

---

procedure.details: Oral bioavailability in mouse at 30 mg/kg
Assay type: ADME, organism-based
study.conditions: in vivo
measured.property: bioavailability (%)
State the answer as a number, implicitly in %.

// `CCCS(=O)(=O)N1CCN(c2ccc(OCC3CCN(C(=O)OC(C)C)CC3)cn2)CC1` : bioavailability value = 8

---

procedure.details: AUC (0 to 24) in mouse at 30 mg/kg, po
Assay type: ADME, organism-based
Parameters: time < 24 hr, dose 30 mg/kg, route oral
study.conditions: plasma
measured.property: AUC at 24 h (ng·h/mL)
The reply should contain only the number, in ng·h/mL.

# AUC at 24 h of `CCCS(=O)(=O)N1CCN(c2ccc(OCC3CCN(C(=O)OC(C)C)CC3)cn2)CC1` = 2350

---

procedure.details: Half life in mouse at 30 mg/kg, po
Format: ADME, organism-based
Set-up: dose 30 mg/kg, route oral
study.conditions: in vivo
measured.property: half-life (min)
Number only, in min; omit the unit.

Short answer for `CCCS(=O)(=O)N1CCN(c2ccc(OCC3CCN(C(=O)OC(C)C)CC3)cn2)CC1` : half-life was 24

---

procedure.details: Cmax in mouse at 30 mg/kg, po
Assay type: ADME, organism-based
Parameters: dose 30 mg/kg, route oral
study.conditions: in vivo
measured.property: Cmax (ng/mL)
// units = ng/mL; emit number, no label

For reference, reported Cmax for `CCCS(=O)(=O)N1CCN(c2ccc(OCC3CCN(C(=O)OC(C)C)CC3)cn2)CC1` stands at 3000

---

assayed.system: Glucose-dependent insulinotropic receptor (Homo sapiens, UniProt Q8TDV5)
Sequence (Q8TDV5 whole entry): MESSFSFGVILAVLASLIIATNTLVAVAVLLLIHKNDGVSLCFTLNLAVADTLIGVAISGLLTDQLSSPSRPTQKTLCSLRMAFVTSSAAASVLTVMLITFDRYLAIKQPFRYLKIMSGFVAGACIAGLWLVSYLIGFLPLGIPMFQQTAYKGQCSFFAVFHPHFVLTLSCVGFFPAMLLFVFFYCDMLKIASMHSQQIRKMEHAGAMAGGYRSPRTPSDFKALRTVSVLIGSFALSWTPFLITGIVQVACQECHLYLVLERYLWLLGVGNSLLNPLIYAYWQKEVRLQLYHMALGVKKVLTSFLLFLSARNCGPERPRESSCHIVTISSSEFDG
procedure.details: Agonist activity at human GPR119 receptor expressed in CHO-K1 cells co-transfected with 6CRE-Luc after 5 hrs by luciferase reporter gene assay
Format: functional, cell-based
pEC50: −log10 of the molar value.
Label rule, in plain words: pEC50 of 6 and up is Condition met, under 6 is Condition not met.

Worked examples, 3 compounds total:
CCCS(=O)(=O)N1CCN(c2ccc(OCC3CCN(C(=O)NC4CCCCC4)CC3)cn2)CC1    Condition not met
COCCN1CCN(c2ccc(OCC3CCN(C(=O)OC(C)C)CC3)cn2)CC1    Condition not met
CCCS(=O)(=O)N1CCN(c2ccc(OCC3CCN(C(=O)N4CCOCC4)CC3)cn2)CC1    Condition not met

// inclusive: pEC50 at least 6? input: `CCCCS(=O)(=O)N1CCN(c2ccc(OCC3CCN(C(=O)OC(C)C)CC3)cn2)CC1`
Condition met

---

assayed.system: Glucose-dependent insulinotropic receptor (Homo sapiens) (UniProt Q8TDV5)
Sequence (Q8TDV5 whole entry): as above
procedure.details: Agonist activity at human GPR119 receptor expressed in CHO-K1 cells co-transfected with 6CRE-Luc after 5 hrs by luciferase reporter gene assay relative to N-(4-(1H-1,2,4-triazol-1-yl)phenyl)-5-nitro-6-(4-(pyridin-2-ylthio)piperidin-1-yl)pyrimidin-4-amine maximal response
Format: functional, cell-based
Strictly below 90% in Activity: class 1. Otherwise: class 0.

CCCS(=O)(=O)N1CCN(c2ccc(OCC3CCN(C(=O)CC(C)C)CC3)cn2)CC1    class 0
CCCS(=O)(=O)N1CCN(c2ccc(OCC3CCN(C(=O)N4CCOCC4)CC3)cn2)CC1    class 1

# TODO verify Activity < 90% strictly for this molecule: `CC(C)OC(=O)N1CCC(COc2ccc(N3CCN(S(=O)(=O)C4CCCCC4)CC3)nc2)CC1`
class 0

Consider `CC(C)OC(=O)N1CCC(COc2ccc(N3CCN(C(=O)c4ccco4)CC3)nc2)CC1` . Does its Activity lie strictly below 90%?
class 0

In the record for `CC(C)OC(=O)N1CCC(COc2ccc(N3CCN(S(=O)(=O)C(C)C)CC3)nc2)CC1` , is Activity less than 90%?
class 0

Report whether reported Activity is lower than 90% (strictly) for `CC(C)NC(=O)CN1CCN(c2ccc(OCC3CCN(C(=O)OC(C)C)CC3)cn2)CC1`
class 1

Please state whether Activity is below 90% for `CC(C)OC(=O)N1CCC(COc2ccc(N3CCN(S(=O)(=O)c4cccs4)CC3)nc2)CC1`
class 1

---

assayed.system: Glucose-dependent insulinotropic receptor (Homo sapiens)
procedure.details: Agonist activity at human GPR119 receptor expressed in CHO-K1 cells co-transfected with 6CRE-Luc after 5 hrs by luciferase reporter gene assay
Format: functional, cell-based
measured.property: log10 of EC50 (log10 of the value in µM)
Form field - Quantity: EC50; Unit: µM; Scale: log10

Some entries whose results are on file:
CCCS(=O)(=O)N1CCN(c2ccc(OCC3CCN(C(=O)NC(C)(C)C)CC3)cn2)CC1    -0.10
CCCS(=O)(=O)N1CCN(c2ccc(OCC3CCN(C(=O)NC(C)C)CC3)cn2)CC1    0.00
CCS(=O)(=O)N1CCN(c2ccc(OC3CCN(C(=O)OC(C)C)CC3)cn2)CC1    0.32
CC(C)OC(=O)N1CCC(COc2ccc(N3CCN(S(=O)(=O)C4CCCCC4)CC3)nc2)CC1    -0.70
COCCS(=O)(=O)N1CCN(c2ccc(OCC3CCN(C(=O)OC(C)C)CC3)cn2)CC1    -0.52

The compound identified as `CCS(=O)(=O)N1CCN(c2ccc(OCCC3CCN(C(=O)OC(C)C)CC3)cn2)CC1` registered its log10 of EC50 at 0.08

The compound `CCCS(=O)(=O)N1CCN(c2ccc(OCC3CCN(C(=O)CC(C)C)CC3)cn2)CC1` showed log10 of EC50 equal to 0.20

For `CCN(CC)S(=O)(=O)N1CCN(c2ccc(OCC3CCN(C(=O)OC(C)C)CC3)cn2)CC1` the compound record lists log10 of EC50 as 0.08

Per the records, this compound ( `CC(C)OC(=O)N1CCC(COc2ccc(N3CCN(S(=O)(=O)c4cccnc4)CC3)nc2)CC1` ) has log10 of EC50 equal to 0.30

log10 of EC50 reported for this compound `CC(C)OC(=O)N1CCC(COc2ccc(N3CCN(S(=O)(=O)c4cccs4)CC3)nc2)CC1` : 0.26
